Recorded Rate of antihypertension values for a group of compounds are listed next.
- Test system: spontaneously hypertensive rats (SHR)
- test-protocol: Antihypertensive effect in spontaneously hypertensive rats
- Format: in vivo
- measurement-parameters: 150 mg/Kg intraperitoneal, 60 minutes
- Protocol: 8. Antihypertensive effect: Groups of rats each comprising 6-9 spontaneously hypertensive rats (SHR) were used. The compounds of the present invention or DPH was given intraperitoneally. The rate of antihypertension 60 minutes after the administration was determined.
Use % as the unit, but write only the number.

The examples below pair each entry with its known result.
O=C1NC(=O)C(c2cc(O)c(O)c(O)c2)(c2cc(O)c(O)c(O)c2)N1 [Compound 36, 5,5-Bis(3,4,5-trihydroxyphenyl)hydantoin]
19.8
O=C1NC(=O)C(c2ccccc2)(c2ccccc2)N1 [DPH, 5,5-diphenylhydantoin, reference compound]
6.6
COc1ccc(C2(c3ccc(OC)c(Cl)c3)NC(=O)NC2=O)cc1 (centres unmarked) [Compound 2]
22.4
O=C1NC(=O)C(c2ccc(O)cc2)(c2ccc(O)cc2)N1 [Compound 4, 5,5-Bis(4-hydroxyphenyl)hydantoin]
34.1

# evaluate next
Task: What does the data say about its Rate of antihypertension? Entry: Cc1cc(C2(c3ccc(O)cc3)NC(=O)NC2=O)ccc1O (centres unmarked) [Compound 30]
Result: 10.9

* * *

- test-protocol: Acute toxicity test (LD50, Litchfield-Wilcoxon), rats
- measurement-parameters: rat, in vivo, ip, male, intraperitoneal
Recorded LD50 at 72 h values for a group of compounds are listed next.
Use mg/kg as the unit, but write only the number.

The examples below pair each entry with its known result.
O=C1NC(=O)C(c2ccc(O)cc2)(c2ccc(O)c(O)c2)N1 (stereo not drawn)
1500
O=C1NC(=O)C(c2cc(O)c(O)c(O)c2)(c2cc(O)c(O)c(O)c2)N1 [Compound 36, 5,5-Bis(3,4,5-trihydroxyphenyl)hydantoin]
1320
O=C1NC(=O)C(c2ccc(O)c(CO)c2)(c2ccc(O)c(CO)c2)N1
4310
O=C1NC(=O)C(c2ccccc2)(c2ccc(F)cc2)N1 (stereo not drawn)
1180
COc1ccc(C2(c3ccc(OC)c(Cl)c3)NC(=O)NC2=O)cc1 (stereo not drawn)
1600

Task: What does the data say about its LD50 at 72 h? Entry: CCC1(c2ccccc2O)NC(=O)NC1=O (stereo not drawn) [Compound 25, 5-Ethyl-5-(2-hydroxyphenyl)hydantoin]
Result: 1600

Task: What does the data say about its LD50 at 72 h? Entry: O=C1NC(=O)C(c2cccc(O)c2)(c2cccc(O)c2)N1 [Compound 8, 5,5-Bis(3-hydroxyphenyl)hydantoin]
Result: 1800

* * *

Recorded inhibition in vivo at 100 mg/kg values for a group of compounds are listed next.
- System: normal mice and SART stress mice
- test-protocol: Analgesic effect, acetic acid writhing method
- Assay type: in vivo
- measurement-parameters: Mus musculus, sc, SART stress mice; 100 mg/Kg subcutaneously
Use % as the unit, but write only the number.

The examples below pair each entry with its known result.
COc1ccc(C2(c3ccc(OC)c(C)c3)NC(=O)NC2=O)cc1 (stereo not shown) [Compound 3]
22
O=C1NC(=O)C(c2ccccc2)(c2ccccc2)N1 [DPH, 5,5-diphenylhydantoin, reference compound]
-6
CCC1(c2ccccc2O)NC(=O)NC1=O (stereo not shown) [Compound 25, 5-Ethyl-5-(2-hydroxyphenyl)hydantoin]
19.8
COc1ccc(C2(c3ccc(OC)c(Cl)c3)NC(=O)NC2=O)cc1 (stereo not shown) [Compound 2]
27.1
O=C1NC(=O)C(c2ccccc2)(c2ccc(O)cc2)N1 (stereo not shown) [Compound 7, 5-(4-Hydroxyphenyl)-5-phenylhydantoin]
31.3
Cc1cc(C2(c3ccc(O)cc3)NC(=O)NC2=O)ccc1O (stereo not shown) [Compound 30]
25.2

# evaluate next
Task: What does the data say about its inhibition in vivo at 100 mg/kg? Entry: O=C1NC(=O)C(c2cc(O)c(O)c(O)c2)(c2cc(O)c(O)c(O)c2)N1 [Compound 36, 5,5-Bis(3,4,5-trihydroxyphenyl)hydantoin]
Result: 29.4

* * *

- Tested on: SART stress mice
- test-protocol: Inhibitory effects on increase of heart rate and elongation of QRS-time in SART stress mice
- Type: in vivo, mice (dd-strain male)
- measurement-parameters: 100 mg/kg/day, 9th day, Average ± S.D.
metric: Heart rate (min⁻¹)
Use min⁻¹ as the unit, but write only the number.

O=C1NC(=O)C(c2ccc(O)cc2)(c2cccs2)N1 (centres unmarked)
741

Task: What does the data say about its Heart rate? Entry: CCC1(c2ccc(O)cc2)NC(=O)NC1=O (centres unmarked) [Compound 24, 5-Ethyl-5-(4-hydroxyphenyl)hydantoin]
Result: 729

Task: What does the data say about its Heart rate? Entry: COc1ccc(C2(c3ccc(OC)c(C)c3)NC(=O)NC2=O)cc1 (centres unmarked)
Result: 710

Task: What does the data say about its Heart rate? Entry: Cc1cc(C2(c3ccc(O)cc3)NC(=O)NC2=O)ccc1O (centres unmarked)
Result: 731

Task: What does the data say about its Heart rate? Entry: O=C1NC(=O)C(c2cc(O)c(O)c(O)c2)(c2cc(O)c(O)c(O)c2)N1 [Compound 36, 5,5-Bis(3,4,5-trihydroxyphenyl)hydantoin]
Result: 737

* * *

Recorded LD50 at 72 h values for a group of compounds are listed next.
- test-protocol: Acute toxicity test (LD50, Litchfield-Wilcoxon), rats
- measurement-parameters: rat, in vivo, ip, female, intraperitoneal

The examples below pair each entry with its known result.
CCCOc1ccc(C2(c3ccc(OCCC)cc3)NC(=O)NC2=O)cc1 [Compound 10, 5,5-Bis(4-propoxyphenyl)hydantoin]
3800 to 4000 mg/kg
COc1ccc(C2(c3ccc(OC)c(CO)c3)NC(=O)NC2=O)cc1CO [Compound 21]
> 5000 mg/kg
COc1ccc(C2(c3ccc(OC)cc3OC)NC(=O)NC2=O)cc1 (stereo not shown) [Compound 15]
> 5000 mg/kg

# evaluate next
Task: What does the data say about its LD50 at 72 h? Entry: O=C1NC(=O)C(c2ccc(O)cc2)(c2ccc(O)cc2O)N1 (stereo not shown) [Compound 31]
Result: 1510 mg/kg

* * *

- Tested on: ddY-strain male mice
- test-protocol: Effect of prolongation of sleeping time (hexobarbital)
- Assay type: in vivo
- measurement-parameters: 50 mg/kg intraperitoneal
Hi, to clarify the labels: Condition met covers Effect of prolongation of sleeping time from 40% upward, Condition not met covers anything below 40%.

Answered examples (3):
CCCOc1ccccc1C1(c2ccccc2OCCC)NC(=O)NC1=O
Condition not met
O=C1NC(=O)C(c2ccccc2)(c2ccc(O)cc2)N1 (centres unmarked) [Compound 7, 5-(4-Hydroxyphenyl)-5-phenylhydantoin]
Condition met
CCC1(c2ccc(O)cc2)NC(=O)NC1=O (centres unmarked) [Compound 24, 5-Ethyl-5-(4-hydroxyphenyl)hydantoin]
Condition met

Task: Is Effect of prolongation of sleeping time for O=C1NC(=O)C(c2ccc(O)cc2)(c2ccc(O)cc2)N1 [Compound 4, 5,5-Bis(4-hydroxyphenyl)hydantoin] at or above 40%?
Result: Condition met

Task: Is Effect of prolongation of sleeping time for `CCCOc1ccc(C2(c3ccc(OCCC)cc3)NC(=O)NC2=O)cc1` at or above 40%?
Result: Condition not met

* * *

- test-protocol: Acute toxicity test (LD50, Litchfield-Wilcoxon), mice
- measurement-parameters: mouse, in vivo, ip, male, intraperitoneal
Recorded LD50 at 72 h values for a group of compounds are listed next.

The examples below pair each entry with its known result.
O=C1NC(=O)C(c2ccccc2)(c2ccc(F)cc2)N1 (centres unmarked) [Compound 5, 5-(4-Fluorophenyl)-5-phenylhydantoin]
840 mg/kg
COc1ccc(C2(c3ccc(OC)c(OC)c3)NC(=O)NC2=O)cc1OC [Compound 19, 5,5-Bis(3,4-dimethoxyphenyl)hydantoin]
> 5000 mg/kg
O=C1NC(=O)C(c2ccc(O)cc2O)(c2ccc(O)cc2O)N1 [Compound 34, 5,5-Bis(2,4-dihydroxyphenyl)hydantoin]
> 1000 mg/kg
O=C1NC(=O)C(c2ccc(O)cc2)(c2cccs2)N1 (centres unmarked) [Compound 1]
> 3000 mg/kg

# evaluate next
Task: What does the data say about its LD50 at 72 h? Entry: COc1ccc(C2(c3ccc(OC)c(OC)c3)NC(=O)NC2=O)cc1 (centres unmarked) [Compound 16]
Result: > 5000 mg/kg

* * *

Recorded LD50 at 72 h values for a group of compounds are listed next.
- test-protocol: Acute toxicity test (LD50, Litchfield-Wilcoxon), mice
- measurement-parameters: mouse, in vivo, ip, male, intraperitoneal

The examples below pair each entry with its known result.
CCCOc1ccc(C2(c3ccc(OCCC)cc3)NC(=O)NC2=O)cc1
3600 mg/kg
O=C1NC(=O)C(c2ccc(O)c(O)c2)(c2ccc(O)c(O)c2)N1 [Compound 17, 5,5-Bis(3,4-dihydroxyphenyl)hydantoin]
1500 to 2000 mg/kg
COc1cc(C2(c3cc(OC)c(OC)c(OC)c3)NC(=O)NC2=O)cc(OC)c1OC
> 5000 mg/kg
O=C1NC(=O)C(c2ccccc2)(c2ccc(O)cc2)N1 (stereo not drawn) [Compound 7, 5-(4-Hydroxyphenyl)-5-phenylhydantoin]
> 5000 mg/kg
COc1ccc(C2(c3ccc(OC)cc3OC)NC(=O)NC2=O)c(OC)c1
> 5000 mg/kg

# evaluate next
Task: What does the data say about its LD50 at 72 h? Entry: CCC1(c2ccc(O)cc2)NC(=O)NC1=O (stereo not drawn) [Compound 24, 5-Ethyl-5-(4-hydroxyphenyl)hydantoin]
Result: > 5000 mg/kg
